Test system: Enterococcus faecalis CCM 4224 (ATCC 29212)
Assay: Antibacterial microdilution broth (EUCAST), EF
Format: cell-based
Conditions: Enterococcus faecalis; read after 24 h; read-out: EF MIC
Consider the following compounds and their measured MIC readings.

Consider the reported MIC for these compounds:
INSERT INTO assay_data (compound, result) VALUES
  ('CCCC(=O)Nc1nccnc1C(N)=O [Compound 29]', '> 500 µM'),
  ('COC(=O)c1nccnc1NC(=O)c1ccc(Br)cc1 [Compound 18e]', '> 500 µM');

Could you now look at the following compound, please?
// fetch Enterococcus faecalis CCM 4224 (ATCC 29212) MIC for Cc1ccc(C(=O)Nc2nccnc2C(=O)N(C)C)cc1 [Compound 36]
> 125 µM

====

System: Candida tropicalis CCM 8264 (ATCC 750)
Test: Antifungal microdilution broth (EUCAST), CT
Format: cell-based
Settings: Candida tropicalis; read after 24 h; read-out: CT MIC
Consider the following molecules and their measured MIC readings.

// fetch Candida tropicalis CCM 8264 (ATCC 750) MIC for NC(=O)c1nccnc1NC(=O)c1ccc(Br)cc1 [Compound 18]
> 125 µM

// fetch Candida tropicalis CCM 8264 (ATCC 750) MIC for CCCC(=O)Nc1nccnc1C(N)=O [Compound 29]
> 500 µM

// fetch Candida tropicalis CCM 8264 (ATCC 750) MIC for NC(=O)c1nccnc1NC(=O)c1ccccc1Cl [Compound 13]
> 500 µM

====

Consider the following compounds and their measured melting point readings.

INSERT INTO results (compound, result) VALUES
  ('CCCCCCC(=O)Nc1nccnc1C(N)=O', '131.5 to 132.1 °C'),
  ('NC(=O)c1nccnc1NC(=O)c1ccccc1C(F)(F)F', '201.5 to 202.4 °C'),
  ('COC(=O)c1nccnc1NC(=O)C1CCCCC1 [Compound 27e]', '106.9 to 108.3 °C'),
  ('O=c1[nH]c(-c2ccc(F)cc2)nc2nccnc12', '277 to 279.5 °C'),
  ('NC(=O)c1nccnc1NC(=O)Cc1ccc(F)cc1', '225.3 to 227.3 °C'),
  ('Cc1ccc(-c2nc3nccnc3c(=O)[nH]2)cc1', '300.5 to 302 °C'),
  ('Cc1ccc(C(=O)Nc2nccnc2C(=O)N(C)C)cc1', '188.7 to 189.5 °C'),
  ('COC(=O)c1nccnc1NC(=O)c1ccc(F)cc1 [Compound 12e]', '151.1 to 153.6 °C'),
  ('NC(=O)c1nccnc1NC(=O)c1cccc(F)c1', '234.1 to 236 °C'),
  ('NC(=O)c1nccnc1NC(=O)CCc1ccccc1', '160.3 to 161.5 °C');

Consider the compound NC(=O)c1nccnc1NC(=O)c1ccccc1Br and give its measured melting point.
223.1 to 225.1 °C

Consider the compound NC(=O)c1nccnc1NC(=O)c1cc(Cl)cc(Cl)c1 and give its measured melting point.
> 300 °C

Consider the compound COc1cccc(C(=O)Nc2nccnc2C(N)=O)c1 and give its measured melting point.
221 to 223 °C

Consider the compound COc1ccc(C(=O)Nc2nccnc2C(N)=O)cc1 and give its measured melting point.
257 to 258.5 °C

Consider the compound COC(=O)c1nccnc1NC(=O)c1cccc(F)c1 [Compound 11e] and give its measured melting point.
135.5 to 136.3 °C

Consider the compound COC(=O)c1nccnc1NC(=O)c1ccccc1Br [Compound 16e] and give its measured melting point.
168.4 to 169.2 °C

Consider the compound NC(=O)c1nccnc1NC(=O)c1ccccc1O and give its measured melting point.
> 300 °C

Consider the compound CCCC(=O)Nc1nccnc1C(N)=O and give its measured melting point.
158.7 to 159.5 °C

Origin of the recorded values: paper PMC9687610
